biological target: muPA V213T (Mus musculus, UniProt P06869, V396T); construct: To ensure that the uPAs purified from the conditioned media were completely in the two-chain form, they were treated with plasmin; hexa-His (C); made in house; host or cells: HEK293 6E suspension cells; assay: Ki for inhibition of muPA-V213T, chromogenic substrate; assay type: biochemical, murine; conditions: means ± S.D.; read-out: K i for inhibition of muPA-V213T
Sequence (P06869 180-433 V396T): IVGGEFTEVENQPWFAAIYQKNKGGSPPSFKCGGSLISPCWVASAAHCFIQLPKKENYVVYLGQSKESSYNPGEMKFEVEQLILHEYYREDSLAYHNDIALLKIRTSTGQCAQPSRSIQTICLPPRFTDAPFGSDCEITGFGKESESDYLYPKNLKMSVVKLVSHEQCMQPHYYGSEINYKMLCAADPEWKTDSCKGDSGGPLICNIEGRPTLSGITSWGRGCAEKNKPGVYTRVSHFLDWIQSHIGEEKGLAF
Sequence (P06869 21-178 partner limits assumed): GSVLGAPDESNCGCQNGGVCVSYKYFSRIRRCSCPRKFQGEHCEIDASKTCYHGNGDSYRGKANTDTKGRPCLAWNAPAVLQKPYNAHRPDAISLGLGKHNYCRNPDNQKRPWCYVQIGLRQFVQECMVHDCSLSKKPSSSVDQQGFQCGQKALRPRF
Bridge positions count the residues as written; N and C are the ends. Square brackets hold non-standard residues; d marks the D form. Peptide text beside a SMILES is read from it. Ala(1-amidino-4-piperidyl) = N=C(N)N1CCC(C[C@H](N)C(=O)O)CC1; Phe(4-guanidino) = N=C(N)Nc1ccc(C[C@H](N)C(=O)O)cc1
Reported values of Ki for individual entries
Give the value, in units of nM, as a plain number.

{"columns": ["compound", "recorded-result"],
 "data": [
  ["CC(=O)N[C@H]1CSSC[C@@H](C(N)=O)NC(=O)[C@H](C)NC(=O)[C@H](CC(C)C)NC(=O)[C@H](Cc2ccc(O)cc2)NC(=O)[C@H](Cc2ccc(NC(=N)N)cc2)NC(=O)[C@H](CO)NC(=O)[C@H](Cc2ccc(O)cc2)NC(=O)[C@H](C)NC(=O)[C@@H]2CCCN2C1=O [Mupain-1-12 D9A, CPAYS[4-guanidino-phenyl-alanine]YLAC] (Ac-CPAYS[Phe(4-guanidino)]YLAC-NH2; disulfide 1-10; N-terminus assumed)", 166],
  ["CC(=O)N[C@H]1CSSC[C@@H](C(N)=O)NC(=O)[C@H](C)NC(=O)[C@H](CC(C)C)NC(=O)[C@H](Cc2ccc(O)cc2)NC(=O)[C@H](CCCNC(=N)N)NC(=O)[C@H](CO)NC(=O)[C@H](Cc2ccc(O)cc2)NC(=O)[C@H](C)NC(=O)[C@@H]2CCCN2C1=O [Mupain-1 D9A, CPAYSRYLAC] (Ac-CPAYSRYLAC-NH2; disulfide 1-10)", 373],
  ["CC(=O)N[C@H]1CSSC[C@@H](C(N)=O)NC(=O)[C@H](C)NC(=O)[C@H](CC(C)C)NC(=O)[C@H](Cc2ccc(O)cc2)NC(=O)[C@H](CC2CCN(C(=N)N)CC2)NC(=O)[C@H](CO)NC(=O)[C@H](Cc2ccc(O)cc2)NC(=O)[C@H](C)NC(=O)[C@@H]2CCCN2C1=O [Mupain-1-16 D9A] (Ac-CPAYS[Ala(1-amidino-4-piperidyl)]YLAC-NH2; disulfide 1-10)", 14]
]}

Which Ki is listed for CC(=O)N[C@H]1CSSC[C@@H](C(N)=O)NC(=O)[C@H](CC(=O)O)NC(=O)[C@H](CC(C)C)NC(=O)[C@H](Cc2ccc(O)cc2)NC(=O)[C@H](Cc2ccc(NC(=N)N)cc2)NC(=O)[C@H](CO)NC(=O)[C@H](Cc2ccc(O)cc2)NC(=O)[C@H](C)NC(=O)[C@@H]2CCCN2C1=O [Mupain-1-12, CPAYS[4-guanidino-phenyl-alanine]YLDC] (Ac-CPAYS[Phe(4-guanidino)]YLDC-NH2; disulfide 1-10) ?
86

Which Ki is listed for CC(=O)N[C@H]1CSSC[C@@H](C(N)=O)NC(=O)[C@H](CC(=O)O)NC(=O)[C@H](CC(C)C)NC(=O)[C@H](Cc2ccc(O)cc2)NC(=O)[C@H](CC2CCN(C(=N)N)CC2)NC(=O)[C@H](CO)NC(=O)[C@H](Cc2ccc(O)cc2)NC(=O)[C@H](C)NC(=O)[C@@H]2CCCN2C1=O [Mupain-1-16] (Ac-CPAYS[Ala(1-amidino-4-piperidyl)]YLDC-NH2; disulfide 1-10) ?
13
